target-under-test: BRD4-BD2 (Homo sapiens)
protocol-summary: BRD4 AlphaLISA assay, BRD4-BD2
condition-notes: displacement of acetyl-histone H4 peptide (Lys5, 8, 12, 16)
test-readout: IC50 (nM)
Numbers only, in nM.

Ask: Under BRD4-BD2 (Homo sapiens): IC50 value of `CNc1nc(-c2nc3ccc(N4CCN(C)CC4)cc3n2Cc2ccccc2)cn2c(C)nnc12` ?
Reply: 41

---

target-under-test: BRD4-BD1 (Homo sapiens, UniProt O60885)
protocol-summary: BRD4 AlphaLISA assay, BRD4-BD1
Assay type: binding
condition-notes: displacement of acetyl-histone H4 peptide (Lys5, 8, 12, 16)
test-readout: IC50 (nM)
Answers are plain numbers, in nM.

Ask: # query: IC50 of entry `CNc1nc(-c2nc3ccc(N4CCN(C)CC4)cc3n2Cc2ccccc2)cn2c(C)nnc12`
Reply: 5

---

protocol-summary: Plasma pharmacokinetics in patients (NCT02516553)
Assay type: in vivo
condition-notes: human, plasma, oral, 6 mg, Schedule C, 6 mg loading/3 mg maintenance, Day 1, 19 patients, read-out: maximal plasma concentration (mean Cmax)
test-readout: Cmax (nM)
Answers are plain numbers, in nM.

Ask: What value of Cmax has been recorded for this entry: CNc1nc(-c2nc3ccc(N4CCN(C)CC4)cc3n2Cc2ccccc2)cn2c(C)nnc12 [BI 894999]
Reply: 19

---

protocol-summary: PK analysis in mouse plasma
Type: in vivo
condition-notes: CIEA NOG (NOD.Cg-Prkdc^scid Il2rg^tm1Sug/JicTac), oral, mice, 5 mg/kg CCS1477, exposure defined as sufficient for a synergistic effect, read-out: plasma concentration at 6 h after compound application
test-readout: concentration at 6 h

Ask: I am curious: what concentration at 6 h value has been reported for `CO[C@H]1CC[C@H](n2c([C@@H]3CCCC(=O)N3c3ccc(F)c(F)c3)nc3cc(-c4c(C)noc4C)ccc32)CC1` ?
Reply: 0.2 to 0.3 µM
